Parameter minimal effective concentration: see the listing below.
- Test system: interferon (α)
- Assay method text: Cytokine induction in human cells: interferon (α) by ELISA
- Format: cell-based
- Condition notes: Homo sapiens, PBMC, human PBMCs, 18 to 24 hours incubation, ELISA of culture supernatant; read-out: Lowest Effective Concentration (μM) Interferon
Assay metric: minimal effective concentration (µM)

>>> experimental_result("CCCCc1nc2c(N)nc3c(c2n1CCCCNS(=O)(=O)c1cccs1)CCCC3")
0.0001
>>> experimental_result("COCCc1nc2c(N)nc3ccccc3c2n1CCCCNS(=O)(=O)Cc1ccccc1")
0.0001
>>> experimental_result("COCCc1nc2c(N)nc3ccccc3c2n1CCCCNS(=O)(=O)NCc1ccccc1")
0.0001
>>> experimental_result("CCCCc1nc2c(N)nc3ccccc3c2n1CCCCNS(=O)(=O)c1ccc(Cl)s1")
0.01
>>> experimental_result("CCCCc1nc2c(N)nc3ccccc3c2n1CCCCNS(=O)(=O)c1cccc(C(F)(F)F)c1")
1
>>> experimental_result("COc1ccc(S(=O)(=O)NCCCCn2cnc3c(N)nc4c(c32)CCCC4)cc1")
3.33
>>> experimental_result("CCCCc1nc2c(N)nc3ccccc3c2n1CCNS(=O)(=O)c1c(C)cc(C)cc1C")
10
>>> experimental_result("COCCc1nc2c(N)nc3ccccc3c2n1CCCCNS(=O)(=O)c1ccc(Cl)cc1")
0.0001

----------
Parameter minimal effective concentration: see the listing below.
- Tested on: interferon (α)
- Assay method text: Cytokine induction in human cells: interferon (α) by ELISA
- Format: cell-based
- Condition notes: Homo sapiens, PBMC, human PBMCs, 18 to 24 hours incubation, ELISA of culture supernatant; read-out: Lowest Effective Concentration (μM) Interferon
Assay metric: minimal effective concentration (µM)

>>> experimental_result("CCOC(=O)C1CCN(S(=O)(=O)NCCCCn2c(CCOC)nc3c(N)nc4ccccc4c32)CC1 [Example 227]")
0.001
>>> experimental_result("COCCc1nc2c(N)nc3ccccc3c2n1CCCCN(C)S(=O)(=O)c1c(C)noc1C [Example 215]")
0.01
>>> experimental_result("CCCCc1nc2c(N)nc3ccccc3c2n1CCCCNS(=O)(=O)c1cccc2c(N(C)C)cccc12 [Example 1]")
0.12
>>> experimental_result("CCCCc1nc2c(N)nc3ccccc3c2n1CCCCNS(=O)(=O)c1c(F)c(F)c(F)c(F)c1F [Example 90]")
0.01

----------
Parameter minimal effective concentration: see the listing below.
- Test system: interferon (α)
- Assay method text: Cytokine induction in human cells: interferon (α) by ELISA
- Assay type: cell-based
- Condition notes: Homo sapiens, PBMC, human PBMCs, 18 to 24 hours incubation, ELISA of culture supernatant; read-out: Lowest Effective Concentration (μM) Interferon
Assay metric: minimal effective concentration (µM)

>>> experimental_result("Nc1nc2c(c3c1ncn3CCCCNS(=O)(=O)c1ccc(Cl)cc1)CCCC2 [Example 59]")
3.33
>>> experimental_result("COCCc1nc2c(N)nc3c(c2n1CCCCNS(=O)(=O)C[C@@]12CCC(CC1=O)C2(C)C)CCCC3 [Example 212]")
0.0001
>>> experimental_result("COCCc1nc2c(N)nc3ccccc3c2n1CCCCNS(=O)(=O)Nc1ccccc1 [Example 224]")
0.0001
>>> experimental_result("COCCc1nc2c(N)nc3ccccc3c2n1CCCCNS(=O)(=O)c1cccc(Br)c1 [Example 184]")
0.0001
>>> experimental_result("CCCCc1nc2c(N)nc3ccccc3c2n1CCCCNS(=O)(=O)c1ccc(-c2ccccc2)cc1 [Example 96]")
1
>>> experimental_result("CCCCc1nc2c(N)nc3ccccc3c2n1CCCCNS(=O)(=O)c1c(F)cccc1F [Example 93]")
0.001
>>> experimental_result("CCCCc1nc2c(N)nc3ccccc3c2n1CCCCNS(=O)(=O)c1ccc(Br)s1 [Example 99]")
0.1
>>> experimental_result("CCCCS(=O)(=O)NCCCCn1c(CCOC)nc2c(N)nc3ccccc3c21 [Example 117]")
0.0001
>>> experimental_result("COCCc1nc2c(N)nc3ccccc3c2n1CCCCNS(=O)(=O)N(C)C [Example 218]")
0.0001
>>> experimental_result("CCCCc1nc2c(N)nc3ccccc3c2n1CCNS(=O)(=O)c1ccc(C(C)(C)C)cc1 [Example 25]")
3.33
>>> experimental_result("COCCc1nc2c(N)nc3ccccc3c2n1CCCCNS(=O)(=O)c1ccc(C#N)cc1 [Example 160]")
0.001
>>> experimental_result("COCCc1nc2c(N)nc3ccccc3c2n1CCCCNS(=O)(=O)C[C@]12CCC(CC1=O)C2(C)C [Example 148]")
0.0001
>>> experimental_result("CCCCc1nc2c(N)nc3ccccc3c2n1CCNS(=O)(=O)c1cccc2c(N(C)C)cccc12 [Example 33]")
1.11
>>> experimental_result("CCCCc1nc2c(N)nc3ccccc3c2n1CCCCNS(=O)(=O)c1ccc(OC(F)(F)F)cc1 [Example 85]")
1
>>> experimental_result("CCCCc1nc2c(N)nc3ccccc3c2n1CCCCNS(=O)(=O)c1cccc2cccnc12 [Example 43]")
0.04
>>> experimental_result("COCCc1nc2c(N)nc3ccccc3c2n1CCCCNS(=O)(=O)NC(C)(C)C [Example 230]")
0.0001
>>> experimental_result("CCCCc1nc2c(N)nc3ccccc3c2n1CCCCNS(=O)(=O)c1ccc(OC)cc1 [Example 37]")
0.01

----------
- System: interferon (α)
- Assay method text: Cytokine induction in human cells: interferon (α) by ELISA
- Assay type: cell-based
- Condition notes: Homo sapiens, PBMC, human PBMCs, 18 to 24 hours incubation, ELISA of culture supernatant; read-out: Lowest Effective Concentration (μM) Interferon
Parameter minimal effective concentration: see the listing below.
Assay metric: minimal effective concentration (µM)

>>> experimental_result("COCCc1nc2c(N)nc3ccccc3c2n1CCCCNS(=O)(=O)c1ccc(F)cc1")
0.0001
>>> experimental_result("CCCCc1nc2c(N)nc3ccccc3c2n1CCCCNS(=O)(=O)c1ccc(OC)c(OC)c1")
0.001
>>> experimental_result("CCCCc1nc2c(N)nc3ccccc3c2n1CCCCNS(=O)(=O)c1ccc2ccccc2c1")
0.01
>>> experimental_result("CCCCc1nc2c(N)nc3ccccc3c2n1CCCCNS(=O)(=O)/C=C/c1ccccc1")
0.12
>>> experimental_result("CCCCc1nc2c(N)nc3ccccc3c2n1CCNS(=O)(=O)c1ccc(Cl)c(Cl)c1")
0.37
>>> experimental_result("CCCCc1nc2c(N)nc3ccccc3c2n1CCNS(=O)(=O)c1ccccc1")
0.12
>>> experimental_result("CCCS(=O)(=O)NCCCCn1c(CCOC)nc2c(N)nc3c(c21)CCCC3")
0.0001
>>> experimental_result("Nc1nc2c(c3c1ncn3CCCCNS(=O)(=O)c1ccccc1)CCCC2")
3.33
>>> experimental_result("CCCCc1nc2c(N)nc3c(c2n1CCCCNS(=O)(=O)c1cccc2c(N(C)C)cccc12)CCCC3")
1
>>> experimental_result("CCCCc1nc2c(N)nc3ccccc3c2n1CCNS(=O)(=O)c1cccs1")
0.12
>>> experimental_result("CCCCc1nc2c(N)nc3ccccc3c2n1CCCCNS(=O)(=O)c1c(C)cc(C)cc1C")
0.37
>>> experimental_result("COCCc1nc2c(N)nc3ccccc3c2n1CCCCNS(=O)(=O)c1ccc(Cl)s1")
0.0001
>>> experimental_result("CCCCc1nc2c(N)nc3ccccc3c2n1CCNS(=O)(=O)/C=C/c1ccccc1")
0.37
>>> experimental_result("CCCCc1nc2c(N)nc3ccccc3c2n1CCCCNS(=O)(=O)c1ccc(I)cc1")
0.37
>>> experimental_result("CCCCc1nc2c(N)nc3ccccc3c2n1CCNS(=O)(=O)c1cc(Br)ccc1OC")
0.12

----------
- Test system: interferon (α)
- Assay method text: Cytokine induction in human cells: interferon (α) by ELISA
- Format: cell-based
- Condition notes: Homo sapiens, PBMC, human PBMCs, 18 to 24 hours incubation, ELISA of culture supernatant; read-out: Lowest Effective Concentration (μM) Interferon
Assay metric: log10 minimal effective concentration (log10 of the value in µM)

>>> experimental_result("COCCc1nc2c(N)nc3ccccc3c2n1CCCCNS(=O)(=O)c1cccc(F)c1 [Example 122]")
-4.00
>>> experimental_result("CCCCc1nc2c(N)nc3ccccc3c2n1CCNS(=O)(=O)c1ccc(C)cc1 [Example 23]")
-0.92
>>> experimental_result("COCCc1nc2c(N)nc3ccccc3c2n1CCCCNS(=O)(=O)c1ccccc1F [Example 120]")
-4.00
>>> experimental_result("COCCc1nc2c(N)nc3ccccc3c2n1CCCCNS(=O)(=O)c1ccc(Br)cc1 [Example 152]")
-4.00
>>> experimental_result("CCS(=O)(=O)NCCCCn1c(CCOC)nc2c(N)nc3c(c21)CCCC3 [Example 207]")
-3.00
>>> experimental_result("CCCCc1nc2c(N)nc3ccccc3c2n1CCCCNS(=O)(=O)c1ccc(C)cc1 [Example 40]")
-2.82
>>> experimental_result("CCOCc1nc2c(N)nc3ccccc3c2n1CCNS(C)(=O)=O [Example 108]")
-1.00
>>> experimental_result("CCCCc1nc2c(N)nc3ccccc3c2n1CCCCNS(=O)(=O)c1ccccc1C(F)(F)F [Example 103]")
-1.00
>>> experimental_result("CCCCc1nc2c(N)nc3c(c2n1CCCCNS(C)(=O)=O)CCCC3 [Example 202]")
-4.00
>>> experimental_result("CCCCc1nc2c(N)nc3ccccc3c2n1CCNS(=O)(=O)c1ccc2ccccc2c1 [Example 32]")
0.05
>>> experimental_result("CCCCc1nc2c(N)nc3ccccc3c2n1CCNS(=O)(=O)CCC [Example 17]")
0.05
>>> experimental_result("CCCCc1nc2c(N)nc3ccccc3c2n1CCCCNS(=O)(=O)c1ccc([N+](=O)[O-])cc1 [Example 88]")
-2.00
>>> experimental_result("CCCCc1nc2c(N)nc3ccccc3c2n1CCCCNS(=O)(=O)c1cc(F)ccc1C [Example 106]")
0.00
>>> experimental_result("COCCc1nc2c(N)nc3ccccc3c2n1CCCCNS(=O)(=O)c1cccs1 [Example 112]")
-4.00
>>> experimental_result("CCCCc1nc2c(N)nc3ccccc3c2n1CCCCNS(=O)(=O)CCCCl [Example 82]")
-3.00
>>> experimental_result("CCCCc1nc2c(N)nc3ccccc3c2n1CCCCNS(=O)(=O)c1ccc2c(c1)CN(C(=O)C(F)(F)F)CC2 [Example 102]")
-3.00
>>> experimental_result("CCCCc1nc2c(N)nc3c(c2n1CCCCNS(=O)(=O)C(C)C)CCCC3 [Example 203]")
-4.00
>>> experimental_result("COCCc1nc2c(N)nc3ccccc3c2n1CCCCNS(=O)(=O)c1ccccc1Cl [Example 127]")
-4.00
>>> experimental_result("CCCCc1nc2c(N)nc3ccccc3c2n1CCCCNS(=O)(=O)c1cccc([N+](=O)[O-])c1 [Example 83]")
-3.00
>>> experimental_result("CCCCc1nc2c(N)nc3ccccc3c2n1CCCCNS(=O)(=O)c1ccc(C(=O)O)cc1 [Example 84]")
0.00
>>> experimental_result("CCCCc1nc2c(N)nc3ccccc3c2n1CCNS(=O)(=O)c1ccc(OC)cc1 [Example 27]")
0.05
>>> experimental_result("COCCc1nc2c(N)nc3c(c2n1CCCCNS(=O)(=O)N(C)C)CCCC3 [Example 221]")
-4.00
>>> experimental_result("CCCCc1nc2c(N)nc3ccccc3c2n1CCNS(=O)(=O)c1cccc2cccnc12 [Example 30]")
0.05
>>> experimental_result("COCCc1nc2c(N)nc3c(c2n1CCCCNS(=O)(=O)c1cccc2c(N(C)C)cccc12)CCCC3 [Example 213]")
-4.00
>>> experimental_result("Nc1nc2c(c3c1ncn3CCCCNS(=O)(=O)c1cccs1)CCCC2 [Example 57]")
0.52
>>> experimental_result("CCCCc1nc2c(N)nc3ccccc3c2n1CCCCNS(=O)(=O)c1ccc(F)cc1 [Example 87]")
-3.00
>>> experimental_result("CCCCc1nc2c(N)nc3ccccc3c2n1CCCCNS(=O)(=O)c1ccc(C(F)(F)F)cc1[N+](=O)[O-] [Example 79]")
-2.00
